Test: qHTS for ATAD5 Agonist screened against the NCATS CANVASS Library (AID 1347367);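 also: luciferase reporter driven by ATAD5 which rises upon DNA damage; 0% is about no effect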
Details: HEK293T ATAD5-luciferase reporter, luminescence, 16 h; series mostly up to 46.1 µM
Active and inactive are the calls of the source. Calls follow the shape of the dose curve; as a rule, active = well fitted curve in the direction sought with a large enough effect; inconclusive = small, poorly fitted or top-dose-only effect, or another doubt; inactive = no such curve, though single readings can be large or run the other way. Peptide text beside a SMILES is read from it. * marks the point of attachment. Hexanoyl = CCCCCC(=O)*
attribute measured: activation

Answered examples (10):
COc1cc(C2C3=C(Cc4cc5c(cc42)OCO5)C(=O)OC3)cc(OC)c1OC (configuration not stated) = inactive
C[C@@]12CCC[C@@](C)(C(=O)OP(=O)(O)OC[C@H]3O[C@@H](n4cnc5c(N)ncnc54)[C@H](O)[C@@H]3O)[C@H]1C[C@@H](O)[C@@]13C[C@@H](CC[C@@H]21)[C@](C)(O)C3 = inactive
CCCCCC(=O)N[C@@H](CC(C)C)C(=O)N[C@H](C=O)CCC(=O)O (Hexanoyl-Leu-Glu-aldehyde) = inactive
C=CC(C)(C)C(=O)[C@@H](C)[C@@H]1CC[C@@](C)(C=C)O1 = inactive
COC(=O)[C@@]1(C)CCC[C@]2(C)c3cc(OC)ccc3CC[C@@H]12 = inactive
COc1ccc([C@@H]2CC(=O)c3c(cc(O)c(C/C=C(\C)CCC=C(C)C)c3O)O2)cc1 = -1.01% [at 9.19 µM] (inactive)
CC1=C2CC[C@]3(C)[C@H](CC=C4[C@@H]5CC(C)(C)CC[C@@H]5C(=O)[C@H](O)[C@]43C)[C@@]2(C)C=C(O)C1=O = inactive
O=c1cc(-c2ccc(O)cc2)oc2cc(O)c([C@@H]3OC(CO)[C@H](O)[C@@H](O)[C@H]3O)c(O)c12 (some centres not stated) = inactive
CN1CC[C@@]23c4ccccc4N[C@@H]1[C@@]21CCN(C)[C@@H]3Nc2ccccc21 = inactive
C/C=C(/CO)C(=O)O[C@@H]1[C@H](O)[C@@H](C(=O)OC)O[C@@H]2C[C@H]3OC(n4cnc5c(N)ncnc54)[C@H](OC)[C@H]3O[C@@]12O (some centres not stated) = inactive

Sure, the documented activation for `CC(C)[C@]12CC[C@@]3(C)[C@H](C)CC[C@H](O)[C@@]3(CC1)c1cc3c(cc12)[nH]c1ccccc13` is inactive

Sure, the documented activation for COc1ccc([C@@H]2c3cc4c(cc3C(=O)C(C)C2C)OCO4)cc1OC (some centres not stated) is inactive

Sure, the documented activation for `COC(=O)C1=C[C@]23C[C@@H](C)CC[C@@H]2[C@@]2(C)CC[C@@H](C(C)C)[C@@](O)(O3)[C@@H]12` is inactive

Sure, the documented activation for `O[C@H]1c2ccccc2-c2c3c(cc4c2[C@@H]1NCC4)OCO3` is inactive

Sure, the documented activation for `C/C=C/[C@H]1[C@H]2C(=O)c3c(O)c(C)c(O)c(C)c3[C@]1(C(=O)O)C(=O)C=C2C` is inactive

---

Test: G06 Cancer Cell Toxicity qHTS against the NCATS CANVASS Library (AID 1347368); also: nearly all actives have a fitted effect of over 60% in size
Details: G06 dog glioma cells, viability ATP luminescence, 72 h; series mostly up to 46.1 µM
Inconclusive results are not listed. Active and inactive are the calls of the source. Calls follow the shape of the dose curve; as a rule, active = well fitted cell-killing curve with a large enough effect; inconclusive = small, poorly fitted or top-dose-only effect; inactive = flat fitted curve, though single readings scatter.
API: response.call in 1 (yes) (active), 0 (no) (inactive)

A selection of reference data follows.
CO[C@@H]1[C@H](O)[C@@H](C)O[C@@H](OC[C@@H]2C(C)OC(=O)/C=C/[C@H](C)C(O[C@@H]3O[C@H](C)CC4(OC(=O)O[C@@H]4C)C3O)[C@@H](C)CC(C)C(=O)/C=C/[C@H]3OC23)[C@@H]1OC (stereo partly drawn) = 1 (yes)
C=C(C)C(=O)O[C@H]1C[C@@]2(C)OC(=CC2=O)/C(C)=C\[C@H]2OC(=O)C(=C)[C@H]12 = 1 (yes)

Here is another molecule to look at.
Query: Test call for this molecule, please: CC(CCC[C@]1(C)C(=O)C=C[C@@]23C[C@]4(C)O[C@@H](C[C@@H]4[C@H]2O)C31)C(=O)O (stereo partly drawn)
Response: 0 (no)
